Consider the following molecules; for each one, report its TGI.
tested on: OVCAR-8 ovarian; test: NCI tumour cell line growth inhibition, 48 h

INPUT: For the molecule `N#C/C(=C\c1ccc(O)c(O)c1)C(N)=O` , give its reported TGI.
OUTPUT: > 100 µM

INPUT: Complete the entry with TGI for `C=CCNC1=C2C[C@@H](C)C[C@@H](OC)[C@@H](OC(=O)CCCN)[C@H](C)/C=C(\C)[C@@H](OC(N)=O)[C@H](OC)/C=C\C=C(/C)C(=O)NC(=CC1=O)C2=O`
OUTPUT: 42.5 µM

INPUT: Tell us which TGI value is on record for `COc1ccc(-n2cc(-c3ccc(Cl)c(Cl)c3)nc2SCc2cccc(C#N)c2)cc1`
OUTPUT: > 100 µM

INPUT: Note TGI for the molecule shown: `N#CC(C#N)=c1[nH]c2cccc3c2-c2c(cccc2c3=C(C#N)C#N)[nH]1`
OUTPUT: > 100 µM

INPUT: Supply measured TGI of CC1(C)OCC2OC3(c4nc(C#N)c(N)o4)OC(C)(C)OC3C2O1 (centres undefined) in your reply.
OUTPUT: > 100 µM

INPUT: Complete the entry with TGI for CCOC(=O)C(N=Nc1ccc(S(N)(=O)=O)cc1)C(C)=O (centres undefined)
OUTPUT: > 100 µM

INPUT: Look up and state reported TGI for `COc1cccc(CCn2c(N)c(-c3ccccc3)c3ccc([N+](=O)[O-])cc3c2=O)c1`
OUTPUT: 4.45 µM

INPUT: Query TGI for `CC(=O)O[C@@H]1C[C@]2(C(C)C)O[C@@]1(C)[C@@H]1CCC(C)=C1[C@@H]2OC(=O)/C=C/c1ccccc1`
OUTPUT: > 100 µM

INPUT: Recall and state the measured TGI for `Clc1ccc(Cl)c(Nc2ccnc(SCc3ccccc3)n2)c1` .
OUTPUT: > 100 µM
